# IC50 annotations
target: Eukaryotic translation initiation factor 4 gamma 1 (Homo sapiens); assay: eIF4E–eIF4G protein interaction inhibitors, dose response, biochemical, TR-FRET (AID 855)
Sequence (Q04637 whole entry): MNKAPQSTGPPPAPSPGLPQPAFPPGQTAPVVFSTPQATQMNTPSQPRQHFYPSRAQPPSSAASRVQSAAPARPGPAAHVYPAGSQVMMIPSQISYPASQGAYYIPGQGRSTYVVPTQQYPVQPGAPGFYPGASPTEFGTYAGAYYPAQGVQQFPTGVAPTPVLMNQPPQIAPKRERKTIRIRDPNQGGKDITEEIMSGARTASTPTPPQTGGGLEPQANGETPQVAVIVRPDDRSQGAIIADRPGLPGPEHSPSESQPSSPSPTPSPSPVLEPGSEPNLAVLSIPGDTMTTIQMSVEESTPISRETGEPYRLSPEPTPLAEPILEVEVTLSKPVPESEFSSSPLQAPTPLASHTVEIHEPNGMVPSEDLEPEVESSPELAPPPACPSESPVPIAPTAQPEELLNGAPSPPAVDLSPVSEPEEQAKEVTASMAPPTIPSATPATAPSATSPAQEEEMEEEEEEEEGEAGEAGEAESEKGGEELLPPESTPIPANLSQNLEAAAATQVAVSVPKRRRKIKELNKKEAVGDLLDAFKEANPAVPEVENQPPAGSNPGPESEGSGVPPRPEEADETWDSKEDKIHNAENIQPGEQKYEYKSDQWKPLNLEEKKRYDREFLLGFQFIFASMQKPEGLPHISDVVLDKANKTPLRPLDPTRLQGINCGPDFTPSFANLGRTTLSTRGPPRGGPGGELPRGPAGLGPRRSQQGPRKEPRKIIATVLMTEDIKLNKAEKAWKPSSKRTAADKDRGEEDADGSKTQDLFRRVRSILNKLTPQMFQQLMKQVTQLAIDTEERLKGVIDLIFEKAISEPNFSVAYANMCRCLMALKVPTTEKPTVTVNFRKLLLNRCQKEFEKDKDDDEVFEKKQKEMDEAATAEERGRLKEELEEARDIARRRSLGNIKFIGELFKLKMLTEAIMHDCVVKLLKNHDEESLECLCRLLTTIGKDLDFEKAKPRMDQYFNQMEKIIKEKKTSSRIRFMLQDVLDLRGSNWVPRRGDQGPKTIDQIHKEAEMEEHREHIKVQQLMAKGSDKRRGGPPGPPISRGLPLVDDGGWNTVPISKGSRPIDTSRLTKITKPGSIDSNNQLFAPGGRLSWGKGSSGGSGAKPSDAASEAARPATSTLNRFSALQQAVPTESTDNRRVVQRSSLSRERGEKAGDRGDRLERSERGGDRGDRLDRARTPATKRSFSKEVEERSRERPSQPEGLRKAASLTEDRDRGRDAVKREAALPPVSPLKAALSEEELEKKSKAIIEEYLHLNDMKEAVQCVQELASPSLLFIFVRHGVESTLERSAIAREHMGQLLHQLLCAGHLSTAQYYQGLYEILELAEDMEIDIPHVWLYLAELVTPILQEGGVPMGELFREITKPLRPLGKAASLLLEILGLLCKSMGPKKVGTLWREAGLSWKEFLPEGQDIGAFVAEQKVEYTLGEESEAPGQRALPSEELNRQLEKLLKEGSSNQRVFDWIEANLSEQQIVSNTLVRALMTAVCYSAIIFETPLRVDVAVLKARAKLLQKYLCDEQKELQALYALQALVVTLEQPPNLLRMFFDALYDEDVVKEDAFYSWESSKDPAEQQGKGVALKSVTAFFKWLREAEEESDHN
Give just the numeric value; µM need not be written.

Below, 5 molecules whose answers are already recorded.
COc1ccc(Cn2c(Nc3cc(Cl)ccc3OC)c3[nH]cccc-3c2=O)cc1	14.4
COc1ccc(-c2cnnc(N=NCc3ccc(-c4ccc([N+](=O)[O-])cc4)o3)n2)cc1	50
CN(C)[C@@H]1C(=O)C(C(=O)NCN2CCCC2)C(=O)[C@@]2(O)C(=O)C3C(=O)c4c(O)cccc4[C@@](C)(O)C3CC12 (some centres not stated)	12.3
O=C1C=CC(CN=Nc2nccs2)C=C1[N+](=O)[O-] (configuration not stated)	10.8
COc1cc(C2C(C(=O)c3ccccc3)C(=O)C(=O)N2c2ccccn2)ccc1O (configuration not stated)	50

Lookup: Identify the reported IC50 for the following entry. `Cc1ccc(Nc2c3[nH]cccc-3c(=O)n2-c2ccccc2C)cc1C`
Found: 9.59

Lookup: Please look at this molecule and report its IC50: `NC(=NNC=c1ccc(=C2C=CC(=O)C(C(=O)O)=C2)o1)N[N+](=O)[O-]`
Found: 63.6

Lookup: Determine from records and report IC50 for Cc1ccccc1C(=O)Nc1cccc(C(=O)N/N=C/C2C=C(Cl)C=C([N+](=O)[O-])C2=O)c1 (configuration not stated)
Found: 50

Lookup: Report IC50 for `Cc1cc(CN=Nc2ccc([N+](=O)[O-])cn2)c(C)n1-c1ccc(C(=O)O)cc1`
Found: 50

Lookup: Provide one value: measured IC50 of `CSc1ccc(CN=Nc2cccc(C(=O)O)c2)cc1`
Found: 50

Lookup: Answer with reported IC50 of `O=C1N=C(Nc2ccc(O)cc2)SC1=C1C(=O)Nc2ccccc21`
Found: 50

Lookup: Output IC50 of CN(C)[C@@H]1C(=O)C(C(N)=O)C(=O)[C@@]2(O)C(=O)C3C(=O)c4c(O)cccc4[C@@](C)(O)[C@H]3[C@H](O)[C@@H]12 (some centres not stated)
Found: 50

From: BindingDB's records for doi:10.7270/Q2RN3686
